- Assay system: Neprilysin (Homo sapiens, UniProt P08473)
- Sequence (P08473 whole entry): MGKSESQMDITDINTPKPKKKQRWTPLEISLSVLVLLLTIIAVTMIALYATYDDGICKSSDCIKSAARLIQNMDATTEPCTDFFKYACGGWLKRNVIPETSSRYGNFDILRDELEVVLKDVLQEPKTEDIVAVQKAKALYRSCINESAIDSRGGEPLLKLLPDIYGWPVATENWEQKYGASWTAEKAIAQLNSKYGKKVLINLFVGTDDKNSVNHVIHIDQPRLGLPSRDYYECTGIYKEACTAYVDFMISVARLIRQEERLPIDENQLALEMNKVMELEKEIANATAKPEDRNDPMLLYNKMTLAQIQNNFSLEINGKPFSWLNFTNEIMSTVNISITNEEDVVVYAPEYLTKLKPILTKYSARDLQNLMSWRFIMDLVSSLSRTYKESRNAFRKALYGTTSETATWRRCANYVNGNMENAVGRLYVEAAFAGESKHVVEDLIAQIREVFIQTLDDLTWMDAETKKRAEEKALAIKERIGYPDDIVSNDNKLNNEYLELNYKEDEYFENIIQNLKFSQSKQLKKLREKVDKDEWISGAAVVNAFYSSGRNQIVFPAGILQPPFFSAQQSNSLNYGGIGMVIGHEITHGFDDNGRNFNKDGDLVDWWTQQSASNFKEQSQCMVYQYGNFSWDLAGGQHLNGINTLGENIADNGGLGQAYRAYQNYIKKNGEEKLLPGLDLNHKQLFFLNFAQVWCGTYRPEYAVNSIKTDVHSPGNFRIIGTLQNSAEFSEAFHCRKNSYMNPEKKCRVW

{"Cpd smiles": "O=C(O)C(=O)N[C@H](Cc1ccc(-c2cccc(Cl)c2)cc1)C[C@@H](O)C(=O)O", "Assay system": "Neprilysin (Homo sapiens, UniProt P08473)", "Ki": "< 1 nM"}

* * *

- Assay system: Neprilysin (Homo sapiens, UniProt P08473)
Reported property: IC50 (nM)

{"Molecule": "C[C@H](CC(Cc1ccc(-c2ccccc2)cc1)NC(=O)CC(=O)O)C(=O)O (stereo partly drawn) [US10123984, Compound 21g]", "Reported property": "IC50", "Endpoint result": 92}
{"Molecule": "C[C@H](C[C@@H](Cc1ccc(-c2ccccc2)cc1)NC(=O)CCCCC(=O)O)C(=O)O [US10123984, Compound 21f]", "Reported property": "IC50", "Endpoint result": 324}
{"Molecule": "C[C@H](C[C@@H](Cc1ccc(-c2ccccc2)cc1)NC(=O)CCCC(=O)O)C(=O)O [US10123984, Compound 21e]", "Reported property": "IC50", "Endpoint result": 90}
